Kindly state pIC50 for each of the entries shown.
# Study Target: recombinant human ACC2 (Homo sapiens (Human), UniProt O00763)
# Sequence (O00763 27-2458): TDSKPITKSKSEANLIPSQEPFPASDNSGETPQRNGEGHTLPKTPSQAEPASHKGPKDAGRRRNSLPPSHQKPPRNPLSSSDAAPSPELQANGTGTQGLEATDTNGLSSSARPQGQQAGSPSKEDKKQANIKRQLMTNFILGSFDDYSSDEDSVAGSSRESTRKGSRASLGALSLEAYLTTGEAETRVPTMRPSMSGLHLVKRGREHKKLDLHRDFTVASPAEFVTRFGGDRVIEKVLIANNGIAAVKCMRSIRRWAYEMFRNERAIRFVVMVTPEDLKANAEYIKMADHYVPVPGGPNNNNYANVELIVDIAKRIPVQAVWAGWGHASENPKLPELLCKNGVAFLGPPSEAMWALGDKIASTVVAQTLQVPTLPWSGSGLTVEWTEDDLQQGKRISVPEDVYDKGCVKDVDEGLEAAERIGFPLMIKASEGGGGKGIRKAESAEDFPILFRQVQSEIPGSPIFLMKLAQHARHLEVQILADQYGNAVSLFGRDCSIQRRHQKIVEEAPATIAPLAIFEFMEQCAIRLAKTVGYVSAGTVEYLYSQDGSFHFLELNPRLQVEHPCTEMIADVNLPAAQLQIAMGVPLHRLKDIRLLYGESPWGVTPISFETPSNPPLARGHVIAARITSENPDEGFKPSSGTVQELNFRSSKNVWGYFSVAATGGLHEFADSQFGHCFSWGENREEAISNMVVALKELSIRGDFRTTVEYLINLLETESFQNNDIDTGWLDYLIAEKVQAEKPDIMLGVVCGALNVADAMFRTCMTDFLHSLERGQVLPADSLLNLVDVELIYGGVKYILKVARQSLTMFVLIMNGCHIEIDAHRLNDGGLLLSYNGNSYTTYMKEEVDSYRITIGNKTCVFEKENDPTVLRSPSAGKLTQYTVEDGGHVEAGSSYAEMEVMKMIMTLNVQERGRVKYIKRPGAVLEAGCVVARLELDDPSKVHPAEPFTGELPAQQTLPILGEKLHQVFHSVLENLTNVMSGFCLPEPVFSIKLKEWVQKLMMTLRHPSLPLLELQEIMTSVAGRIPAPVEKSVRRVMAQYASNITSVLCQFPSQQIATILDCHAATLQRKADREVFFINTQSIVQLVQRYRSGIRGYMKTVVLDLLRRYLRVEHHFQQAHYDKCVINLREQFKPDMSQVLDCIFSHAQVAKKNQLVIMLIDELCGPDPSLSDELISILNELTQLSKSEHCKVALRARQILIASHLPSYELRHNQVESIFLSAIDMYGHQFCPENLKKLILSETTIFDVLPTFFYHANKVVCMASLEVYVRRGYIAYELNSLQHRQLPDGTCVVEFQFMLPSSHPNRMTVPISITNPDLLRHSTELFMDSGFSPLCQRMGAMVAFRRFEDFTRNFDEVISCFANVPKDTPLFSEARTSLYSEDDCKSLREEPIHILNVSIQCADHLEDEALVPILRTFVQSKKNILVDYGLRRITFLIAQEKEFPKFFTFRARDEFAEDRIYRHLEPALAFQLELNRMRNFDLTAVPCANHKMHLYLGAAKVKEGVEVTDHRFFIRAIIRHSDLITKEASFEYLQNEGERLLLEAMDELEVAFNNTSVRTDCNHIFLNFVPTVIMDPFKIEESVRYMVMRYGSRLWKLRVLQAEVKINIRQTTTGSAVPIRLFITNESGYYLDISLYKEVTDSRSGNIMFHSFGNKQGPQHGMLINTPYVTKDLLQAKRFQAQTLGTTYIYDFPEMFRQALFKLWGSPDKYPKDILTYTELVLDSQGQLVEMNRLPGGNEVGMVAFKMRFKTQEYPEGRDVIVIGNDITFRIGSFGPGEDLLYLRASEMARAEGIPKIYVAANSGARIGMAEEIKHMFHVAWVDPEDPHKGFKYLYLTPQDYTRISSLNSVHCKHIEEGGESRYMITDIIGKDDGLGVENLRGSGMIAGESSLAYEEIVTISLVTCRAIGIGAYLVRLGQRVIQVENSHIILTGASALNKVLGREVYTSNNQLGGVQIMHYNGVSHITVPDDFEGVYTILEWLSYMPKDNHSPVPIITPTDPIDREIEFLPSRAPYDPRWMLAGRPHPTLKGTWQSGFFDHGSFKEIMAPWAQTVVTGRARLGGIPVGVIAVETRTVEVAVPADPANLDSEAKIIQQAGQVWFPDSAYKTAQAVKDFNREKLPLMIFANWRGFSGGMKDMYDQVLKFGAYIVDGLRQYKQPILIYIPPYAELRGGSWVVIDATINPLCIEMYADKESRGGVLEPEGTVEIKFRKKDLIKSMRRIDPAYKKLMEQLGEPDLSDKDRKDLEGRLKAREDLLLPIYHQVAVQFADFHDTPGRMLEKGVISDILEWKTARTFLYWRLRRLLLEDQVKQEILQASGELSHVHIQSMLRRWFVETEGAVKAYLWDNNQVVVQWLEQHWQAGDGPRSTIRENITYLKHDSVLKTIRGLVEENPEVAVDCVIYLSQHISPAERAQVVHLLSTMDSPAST
# Test Summary: Measurement of inhibitory activity on human ACC2 (MALDI-TOF MS, acetyl CoA to malonyl CoA conversion)
# Assay type: biochemical
# Experimental Setup: Tables 155-159
pIC50 (log units): -log10 of the concentration in mol/L.

Lookup: Look up pIC50: CC(=O)N[C@@H](C)CO[C@H]1CC[C@H](Oc2ccc3nc(OC4CC4)n(C)c3n2)CC1 [Compound I-495]
Found: 7.13

Lookup: What about this compound? CC(=O)N[C@@H](C)CO[C@H]1C[C@H](COc2ncnc(OCc3cccnc3)c2Cl)C1 [Compound I-392]
Found: 7.16

Lookup: What about this compound? CC(=O)N[C@@H](C)CO[C@H]1C[C@H](COc2ncnc(OCc3ccc(C)cn3)c2Cl)C1 [Compound I-403]
Found: 7.37

Lookup: What about this compound? CC(=O)N[C@@H](C)CO[C@H]1CC[C@H](Oc2nc3ccc(SCC(C)C)cc3n2C)CC1 [Compound I-578]
Found: 6.96
